Test system: HepG-2
Protocol Details: MTT cytotoxicity assay, HepG-2
Type: cell-based, human
Stated Conditions: 72 h
Recorded Endpoint: IC50 (µM)
One number for each entry, in µM.

In: Please look up its IC50: N.N.[Cl][Pt][Cl] [DDP, reference compound]
Out: 4.14

###

Test system: HepG-2
Protocol Details: MTT cytotoxicity assay, HepG-2
Type: cell-based, human
Stated Conditions: Homo sapiens, HepG2, 72 h
Please respond with reported IC50 for every item in the list.
One number for each entry, in µM.

Below, 2 compounds whose answers are already recorded.
Smiles Entry	Display Unit	IC50
O=c1c(-c2ccc(O)cc2)coc2cc(O)ccc12	µM	21.8
Cc1nc(C)c(COc2cc3oc(-c4ccccc4)cc(=O)c3c(OCc3nc(C)c(C)nc3C)c2OCc2nc(C)c(C)nc2C)nc1C	µM	13.4

Turning to the following compound.
In: Please look up its IC50: O=c1cc(-c2ccccc2)oc2cc(O)cc(O)c12
Out: 15.6
